- Test system: wheat, spring (spring wheat, Triticum aestivum)
- protocol.summary: Test D controlled growth environment herbicide test, pre- and postemergence
- Type: in vivo
- recorded.conditions: Postemergence, 125 g ai/ha; visual rating on scale 0 (no effect) to 100 (complete control), 14 to 21 d
assay.metric: Plant response rating, Wheat, Spring
Please respond with just the number, no unit label.

Problem: State the recorded Plant response rating, Wheat, Spring for this entry: `Cc1ccc2sc(C)c(-c3c(O)c(C)nn(C)c3=O)c2c1`
Result: 10

Problem: State the recorded Plant response rating, Wheat, Spring for this entry: `CC(=O)Oc1c(Br)nn(C)c(=O)c1-c1c(C)ccc2ccccc12`
Result: 50

Problem: State the recorded Plant response rating, Wheat, Spring for this entry: `CCOC(=O)Oc1c(C)nn(C)c(=O)c1-c1c(C)ccc2ccccc12`
Result: 70

Problem: State the recorded Plant response rating, Wheat, Spring for this entry: `CCOC(=O)Oc1c(C)nn(C)c(=O)c1-c1c(C)sc2ccc(C)cc12`
Result: 0

Problem: State the recorded Plant response rating, Wheat, Spring for this entry: `CC(=O)Oc1c(C)nn(C)c(=O)c1-c1ccc(F)c2ccccc12`
Result: 40

Problem: State the recorded Plant response rating, Wheat, Spring for this entry: `Cc1cc(C)c2sc(C)c(-c3c(OC(=O)OC(C)C)c(C)nn(C)c3=O)c2c1`
Result: 0

Problem: State the recorded Plant response rating, Wheat, Spring for this entry: `Cc1ccc2ccc(C)c(-c3c(O)c(C)nn(C)c3=O)c2c1`
Result: 40
